All figures here come from patent US20230321086A1.

Read-out record for NAMPT (Homo sapiens): IC50

Before answering, review these 5 worked examples.
O=C(NCCc1cccnc1)Nc1cnc2nc(-c3ccc(Cl)cc3)c(-c3ccc(Cl)cc3)nc2c1 = < 1 µM
C#CCNC(=O)c1ccc2nc(-c3ccc(F)cc3)c(-c3cccc(NC(=O)COC)c3)nc2c1 = ≥ 25 µM
O=C(Nc1ccc2nc(-c3ccc(F)cc3)c(-c3ccc(F)cc3)nc2c1)NC1CCCNC1 (centres unmarked) = ≥ 25 µM
COCC(=O)Nc1cccc(-c2nc3ccc(C(=O)N4CCN(C)CC4)cc3nc2-c2ccc(F)cc2)c1 = ≥ 25 µM
CN1CCN(C(=O)c2ccc3nc(-c4ccc(F)cc4)c(-c4cccc(CNS(C)(=O)=O)c4)nc3c2)CC1 = ≥ 25 µM

(Q) Tell me the measured IC50 of `Nc1ccc(CCNC(=O)Nc2cnc3nc(-c4ccc(F)cc4)c(-c4ccc(F)cc4)nc3c2)cn1` , please.
(A) < 1 µM

(Q) Tell me the measured IC50 of `CN1CCN(Cc2cccc(-c3nc4ccc(C(=O)N5CCN(C)CC5)cc4nc3-c3cccc(CN4CCN(C)CC4)c3)c2)CC1` , please.
(A) ≥ 25 µM

(Q) Tell me the measured IC50 of `O=C(NCc1cccnc1)Nc1cnc2nc(-c3ccc(F)cc3)c(-c3ccc(F)cc3)nc2c1` , please.
(A) < 1 µM

(Q) Tell me the measured IC50 of `O=C(NCCc1cncs1)Nc1cnc2nc(-c3ccc(F)cc3)c(-c3ccc(F)cc3)nc2c1` , please.
(A) < 1 µM
